# target_entity: NET (Homo sapiens, UniProt P23975)
# Sequence (P23975 whole entry): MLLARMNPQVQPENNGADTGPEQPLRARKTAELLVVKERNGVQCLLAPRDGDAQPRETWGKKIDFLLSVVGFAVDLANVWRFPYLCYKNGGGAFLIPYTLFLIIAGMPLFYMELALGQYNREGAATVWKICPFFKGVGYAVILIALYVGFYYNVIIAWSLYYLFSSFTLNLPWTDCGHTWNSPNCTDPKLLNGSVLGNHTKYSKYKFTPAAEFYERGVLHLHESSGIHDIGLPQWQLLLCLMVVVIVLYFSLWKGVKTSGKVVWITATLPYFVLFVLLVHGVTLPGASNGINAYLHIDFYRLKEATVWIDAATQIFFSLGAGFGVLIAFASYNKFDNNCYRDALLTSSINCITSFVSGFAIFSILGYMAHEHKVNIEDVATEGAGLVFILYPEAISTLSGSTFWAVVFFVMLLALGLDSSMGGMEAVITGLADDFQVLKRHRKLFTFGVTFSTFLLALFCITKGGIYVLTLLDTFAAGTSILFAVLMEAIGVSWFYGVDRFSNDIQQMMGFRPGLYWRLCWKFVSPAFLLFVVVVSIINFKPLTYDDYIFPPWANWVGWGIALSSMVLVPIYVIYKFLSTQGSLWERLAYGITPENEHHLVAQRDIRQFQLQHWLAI
# test_description: hNET radioligand binding assay (3H-nisoxetine)
# Parameters: expressed in transfected cells; host or cells: HEK-293
# recorded_conditions: hNET membranes (HEK-293), 1.0 nM 3H-nisoxetine; read-out: NET pKi (converted)
Provide the recorded Ki for the entries that follow.

// worked examples, Ki included
Fc1cc(F)c(O[C@H](c2cccnc2)[C@H]2CCNC2)c(F)c1 | ≤ 0.1 µM
COc1cccc(C(Oc2cccc3ccccc23)C2CCNC2)c1 (stereo not drawn) | ≤ 0.1 µM
Fc1cc(F)c(O[C@@H](c2ncco2)[C@H]2CCNC2)c(F)c1 | ≤ 10 µM
Fc1cncc(C(Oc2c(F)ccc(F)c2Cl)C2CCNC2)c1 (stereo not drawn) | ≤ 10 µM
Fc1cc(F)c(Cl)c(O[C@H](c2cnccn2)[C@H]2CCNC2)c1Cl | ≤ 10 µM
Fc1ccc(F)c(O[C@H](c2cncc(Cl)c2)[C@H]2CCNC2)c1Cl | ≤ 10 µM

Kindly give each listed record's Ki.
1. COc1ccccc1OC(c1cccnc1)[C@H]1CCNC1 (stereo partly drawn)
2. Clc1ccc(Cl)c(O[C@@H](c2cccnc2)[C@H]2CCNC2)c1Cl
3. Fc1ccc(O[C@@H](c2ccccc2)C2CCNC2)c2ccccc12 (stereo partly drawn)
4. Cc1cc(Cl)ccc1O[C@H](c1cncc(F)c1)[C@H]1CCNC1
5. c1ccc(C(Oc2cccnc2)C2CCNC2)cc1 (stereo not drawn)
6. Fc1ccc(F)c(OC(c2nccs2)C2CCNC2)c1Cl (stereo not drawn)

Result:
≤ 0.1 µM
≤ 0.1 µM
≤ 0.1 µM
≤ 10 µM
≤ 10 µM
≤ 0.1 µM

###

# target_entity: NET (Homo sapiens)
# test_description: hNET radioligand binding assay (3H-nisoxetine)
# Set-up: expressed in transfected cells; host or cells: HEK-293
# recorded_conditions: hNET membranes (HEK-293), 1.0 nM 3H-nisoxetine
readout_label: NET pKi

// worked examples, NET pKi included
Fc1ccc(F)c(O[C@@H](c2cncnc2)[C@H]2CCNC2)c1Cl.O=C(O)C(F)(F)F | ≧7.0
Clc1ccc(O[C@@H](c2ccccc2)[C@H]2CCNC2)cn1.O=C(O)C(F)(F)F | ≧5.0
Fc1cc(F)c(OC(c2nccs2)C2CCNC2)c(F)c1.O=C(O)C(F)(F)F (mixture of isomers) | ≧7.0
COc1cc(F)c(O[C@H](c2nccs2)C2CCNC2)c(F)c1 (stereo partly drawn) | ≧5.0
CCOc1ccccc1O[C@@H](c1ncco1)[C@H]1CCNC1.O=C(O)C(F)(F)F | ≧7.0

Kindly give each listed record's NET pKi.
1. COc1ncccc1O[C@@H](c1ccccc1)[C@H]1CCNC1.O=C(O)C(F)(F)F
2. Cc1cccc(O[C@@H](c2ccccc2)[C@H]2CCNC2)n1.O=C(O)C(F)(F)F
3. Clc1cccc(Cl)c1O[C@@H](c1ncco1)[C@H]1CCNC1.O=C(O)C(F)(F)F
4. CCc1cc(F)ccc1O[C@@H](c1ncco1)[C@H]1CCNC1.O=C(O)C(F)(F)F
5. Cc1c(F)c(F)nc(O[C@@H](c2ccccc2)[C@H]2CCNC2)c1F.O=C(O)C(F)(F)F
6. Cc1ccnc(OC(c2ccccc2)C2CCNC2)c1 (stereo not drawn)
7. Fc1c(Cl)nc(O[C@@H](c2ccccc2)[C@H]2CCNC2)c(F)c1Cl.O=C(O)C(F)(F)F
8. Fc1cc(F)c(Cl)c(O[C@@H](c2nccs2)[C@H]2CCNC2)c1Cl

Result:
≧7.0
≧5.0
≧7.0
≧7.0
≧5.0
≧7.0
≧7.0
≧5.0

Kindly give each listed record's NET pKi.
1. Fc1cnc(O[C@H](c2ccccc2)[C@@H]2CCNC2)c(F)c1.O=C(O)C(F)(F)F
2. O=C(O)C(F)(F)F.c1ccc2cc(O[C@@H](c3ncco3)[C@H]3CCNC3)ccc2c1
3. Fc1cnc(O[C@@H](c2ccccc2)[C@H]2CCNC2)c(F)c1.O=C(O)C(F)(F)F

Result:
1: ≧7.0; 2: ≧7.0; 3: ≧7.0

Kindly give each listed record's NET pKi.
1. Fc1ccc(O[C@@H](c2ccccc2)[C@H]2CCNC2)nc1F.O=C(O)C(F)(F)F
2. O=C(O)C(F)(F)F.c1ccc(-c2ccccc2O[C@@H](c2ncco2)[C@H]2CCNC2)cc1

Result:
["≧7.0", "≧7.0"]

Kindly give each listed record's NET pKi.
1. FC(F)(F)c1ccc(O[C@@H](c2ccccc2)[C@H]2CCNC2)nc1.O=C(O)C(F)(F)F
2. O=C(O)C(F)(F)F.c1ccc([C@H](Oc2cccnc2OC2CCCC2)[C@H]2CCNC2)cc1
3. Clc1cccc(O[C@@H](c2ncco2)[C@H]2CCNC2)c1Cl.O=C(O)C(F)(F)F

Result:
1: ≧5.0; 2: ≧7.0; 3: ≧7.0

###

# target_entity: SERT (Homo sapiens, UniProt P31645)
# Sequence (P31645 whole entry): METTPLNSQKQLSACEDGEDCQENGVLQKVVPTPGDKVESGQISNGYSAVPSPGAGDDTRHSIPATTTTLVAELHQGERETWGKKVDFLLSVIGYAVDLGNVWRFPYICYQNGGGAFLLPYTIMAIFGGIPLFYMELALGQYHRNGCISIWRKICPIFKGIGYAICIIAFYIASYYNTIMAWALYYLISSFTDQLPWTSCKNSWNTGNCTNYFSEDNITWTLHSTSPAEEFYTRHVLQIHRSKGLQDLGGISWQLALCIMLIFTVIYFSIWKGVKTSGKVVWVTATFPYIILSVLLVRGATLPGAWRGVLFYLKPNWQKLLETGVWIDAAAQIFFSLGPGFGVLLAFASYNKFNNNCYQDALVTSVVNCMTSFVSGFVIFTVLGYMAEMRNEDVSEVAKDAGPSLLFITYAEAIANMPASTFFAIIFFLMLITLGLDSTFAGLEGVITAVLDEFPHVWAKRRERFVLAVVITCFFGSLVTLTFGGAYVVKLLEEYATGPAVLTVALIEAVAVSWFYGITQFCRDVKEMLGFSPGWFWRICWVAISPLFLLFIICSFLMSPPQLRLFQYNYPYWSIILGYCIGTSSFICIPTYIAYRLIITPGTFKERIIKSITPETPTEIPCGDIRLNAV
# test_description: hSERT radioligand binding assay (3H-citalopram)
# Set-up: expressed in transfected cells; host or cells: HEK-293
# recorded_conditions: hSERT membranes (HEK-293), 1.0 nM 3H-citalopram
readout_label: SERT pKi

// worked examples, SERT pKi included
COc1ccccc1OC(c1cncnc1)C1CCNC1 (centres unmarked) | ≧5.0
CCc1cc(F)ccc1O[C@@H](c1ncco1)[C@H]1CCNC1.O=C(O)C(F)(F)F | ≧7.0
Fc1cc(F)c(OC(c2nccs2)C2CCNC2)c(F)c1.O=C(O)C(F)(F)F (mixture of isomers) | ≧7.0
Fc1cc(O[C@@H](c2ccccc2)[C@H]2CCNC2)cnc1F.O=C(O)C(F)(F)F | ≧5.0
Fc1ccc(O[C@@H](c2ccccc2)[C@H]2CCNC2)nc1.O=C(O)C(F)(F)F | ≧7.0

Kindly give each listed record's SERT pKi.
1. FC(F)(F)c1ccc(O[C@H](c2ccccc2)[C@@H]2CCNC2)nc1.O=C(O)C(F)(F)F
2. COc1cc(F)c(O[C@@H](c2nccs2)[C@H]2CCNC2)c(F)c1
3. Clc1ccc(OC(c2ncco2)C2CCNC2)c(Cc2ccccc2)c1 (centres unmarked)

Result:
≧7.0
≧7.0
≧7.0

###

# target_entity: NET (Homo sapiens)
# test_description: hNET radioligand binding assay (3H-nisoxetine)
# Set-up: expressed in transfected cells; host or cells: HEK-293
# recorded_conditions: hNET membranes (HEK-293), 1.0 nM 3H-nisoxetine
readout_label: NET pKi

// worked examples, NET pKi included
Cc1ccc(F)c(O[C@H](c2nccs2)[C@H]2CCNC2)c1Cl [Example 5-23] | ≧7.0
Cc1c(Cl)cccc1O[C@@H](c1ncco1)[C@H]1CCNC1.O=C(O)C(F)(F)F [6-50] | ≧7.0
Cc1cc(Cl)cc(C)c1O[C@@H](c1ncco1)[C@H]1CCNC1.O=C(O)C(F)(F)F [6-15] | ≧5.0
Fc1cccc(O[C@@H](c2ccccc2)[C@H]2CCNC2)n1.O=C(O)C(F)(F)F [14-10] | ≧7.0

Please examine the following record next.
Task: Assign NET pKi to the following record: COc1cccnc1O[C@@H](c1ccccc1)[C@H]1CCNC1.O=C(O)C(F)(F)F [14-39]
Result: ≧5.0
